So I've got a bunch of molecules here, and I need their pIC50 values.
# Tested on: MCF7
# PROTOCOL_DESCRIPTION: Cytotoxicity against human MCF7 cells after 5 days by MTT assay
# Type: functional, cell-based
# DETAILS: MCF7, 120 h
Answers are plain numbers, as −log10 of the molar value.

                           substance_smiles  property_label  numeric_readout
0  Nc1n[nH]c(=O)c2c1ncn2[C@@H]1O[C@H](CO)[C@@H](O)[C@H]1O           pIC50             4.56
1  Nc1n[nH]c(=O)c2ncn([C@@H]3O[C@H](CO)[C@@H](O)[C@H]3O)c12           pIC50             4.63

Field: next molecule
Query block: Suppose we examine the molecule Nc1n[nH]c(=O)c2ncn([C@H]3C[C@H](O)[C@@H](CO)O3)c12 ; what pIC50 value has been reported?
Result block: 4.01
